- PROCEDURE_DETAILS: Binding affinity to BSA 2 by isothermal titration calorimetry
- Set-up: species or system Bos taurus
Where a SMILES comes first, the peptide text is derived from it. [ ]: non-standard residue; d: D form. The star is where a group is joined. Bip = N[C@@H](Cc1ccc(-c2ccccc2)cc1)C(=O)O; NHBn = c1ccc(CN*)cc1; NHiPr = CC(C)N*
Each entry below lists one item and its recorded pKd value.
Quick note: pKd means taking -log10 of the concentration in moles per liter.

Solved entries:
[Q] Please look up its pKd: `N=C(N)NCCC[C@H](NC(=O)[C@H](Cc1ccc(-c2ccccc2)cc1)NC(=O)[C@@H](N)CCCNC(=N)N)C(=O)N(Cc1ccccc1)Cc1ccccc1`
[A] 4.91

[Q] Please look up its pKd: CC(C)NC(=O)[C@H](CCCNC(=N)N)NC(=O)[C@H](Cc1ccc(-c2ccccc2)cc1)NC(=O)[C@@H](N)CCCNC(=N)N (H-Arg-[Bip]-Arg-NHiPr)
[A] 4.84

# evaluate next
[Q] Please look up its pKd: N=C(N)NCCC[C@H](NC(=O)[C@H](Cc1ccc(-c2ccccc2)cc1)NC(=O)[C@@H](N)CCCNC(=N)N)C(=O)NCc1ccccc1 (H-Arg-[Bip]-Arg-NHBn)
[A] 4.89
